# System: 377384-186-R-J1-PDC complex spheroid viability
# ASSAY EXPLANATION: Anticancer human tumor 377384-186-R-J1-PDC patient-derived pancreatic carcinoma cell line growth inhibition [RAS]
# CONDITION SET: second compound 1 µM; first compound 0.000949 µM; active compounds read low
# viability, T/C values compiled below
Quick note: give the figure in %, leave out the unit.

Before answering, review these 3 worked examples.
1. CC1(C)CCC(Nc2ncc(C(F)(F)F)c(-c3c[nH]c4c(P(C)(C)=O)c(C#N)ccc34)n2)CN1 (centres undefined) + C=CC(=O)N1CCN(c2nc(OCC3CCCN3C)nc3c(F)c(-c4nc(N)cc(C)c4C(F)(F)F)c(Cl)cc23)C(C)C1; 78.7
2. CC1(C)CCC(Nc2ncc(C(F)(F)F)c(-c3c[nH]c4c(P(C)(C)=O)c(C#N)ccc34)n2)CN1 (centres undefined) + C#Cc1c(F)ccc2cc(O)cc(-c3ncc4c(N5CC6CCC(C5)N6)nc(OCC56CCCN5CC(F)C6)nc4c3F)c12; 4.34
3. CCc1c2c(nc3ccc(O)cc13)-c1cc3c(c(=O)n1C2)COC(=O)[C@]3(O)CC + C#Cc1c(F)ccc2cc(O)cc(-c3ncc4c(N5CC6CCC(C5)N6)nc(OCC56CCCN5CC(F)C6)nc4c3F)c12; 3.89

Attention now turns to another entry.
Documented viability, T/C of CCc1c2c(nc3ccc(O)cc13)-c1cc3c(c(=O)n1C2)COC(=O)[C@]3(O)CC + C=CC(=O)N1CCN(c2nc(OCC3CCCN3C)nc3c(F)c(-c4nc(N)cc(C)c4C(F)(F)F)c(Cl)cc23)C(C)C1 : 53.6

###

# Tested on: 377384-186-R-J1-PDC complex spheroid viability
# ASSAY EXPLANATION: Anticancer human tumor 377384-186-R-J1-PDC cell line growth inhibition [RAS];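 also: spheroids exposed to compounds for seven days before readout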
# CONDITION SET: second compound 0.316 µM; first compound 1 µM; active compounds read low
ASSAY ENDPOINT: viability, T/C (%)
Quick note: give the figure in %, leave out the unit.

Observed viability, T/C, 377384-186-R-J1-PDC complex spheroid viability, CCN1CCN(Cc2ccc(Nc3ncc(F)c(-c4cc(F)c5nc(C)n(C(C)C)c5c4)n3)nc2)CC1 + C=CC(=O)N1CCN(c2nc(OCC3CCCN3C)nc3c(F)c(-c4nc(N)cc(C)c4C(F)(F)F)c(Cl)cc23)C(C)C1 : 39.8

Observed viability, T/C, 377384-186-R-J1-PDC complex spheroid viability, CC(C)NCC(C(=O)N1CCN(c2ncnc3c2C(C)CC3O)CC1)c1ccc(Cl)cc1 (stereo unspecified) + C#Cc1c(F)ccc2cc(O)cc(-c3ncc4c(N5CC6CCC(C5)N6)nc(OCC56CCCN5CC(F)C6)nc4c3F)c12 : 3.37

Observed viability, T/C, 377384-186-R-J1-PDC complex spheroid viability, CC(C)NCC(C(=O)N1CCN(c2ncnc3c2C(C)CC3O)CC1)c1ccc(Cl)cc1 (stereo unspecified) + C=CC(=O)N1CCN(c2nc(OCC3CCCN3C)nc3c(F)c(-c4nc(N)cc(C)c4C(F)(F)F)c(Cl)cc23)C(C)C1 : 56

Observed viability, T/C, 377384-186-R-J1-PDC complex spheroid viability, O=C(c1ccc(F)c(F)c1Nc1ccc(I)cc1F)N1CC(O)([C@@H]2CCCCN2)C1 + C=CC(=O)N1CCN(c2nc(OCC3CCCN3C)nc3c(F)c(-c4nc(N)cc(C)c4C(F)(F)F)c(Cl)cc23)C(C)C1 : 0.48

Observed viability, T/C, 377384-186-R-J1-PDC complex spheroid viability, C=CC(=O)Nc1cc(Nc2nccc(-c3cn(C)c4ccccc34)n2)c(OC)cc1N(C)CCN(C)C + C=CC(=O)N1CCN(c2nc(OCC3CCCN3C)nc3c(F)c(-c4nc(N)cc(C)c4C(F)(F)F)c(Cl)cc23)C(C)C1 : 48.4

Observed viability, T/C, 377384-186-R-J1-PDC complex spheroid viability, CC(Nc1ccc2c(c1)OCCn1cc(N3C(=O)OCC3C(F)F)nc1-2)C(N)=O (stereo unspecified) + C#Cc1c(F)ccc2cc(O)cc(-c3ncc4c(N5CC6CCC(C5)N6)nc(OCC56CCCN5CC(F)C6)nc4c3F)c12 : 0.81
